Where do the numbers come from? From paper PMC6259646.

System: lactase phlorizin hydrolase
Experiment: co-perfusion with LPH inhibitor gluconolactone in perfused rat intestinal model: inhibition of hydrolysis
Assay type: in vivo
Conditions: 10 μM flavonoid co-perfused with gluconolactone (40μM), colon
Experimental: This is a single-pass perfusion method. […] After a 30-min washout period, which is usually sufficient to achieve the steady-state absorption, four samples were collected from the outlet cannulae every 30 min afterward. After perfusion, the length of the intestine was measured as described previously The outlet concentrations of the test compounds in the luminal perfusate were determined by HPLC or LC/MS/MS. […] After perfusion, perfusates were collected and determined by HPLC. […]
ASSAY METRIC: hydrolysis inhibition rate, colon
Enter the number, and then the unit.

Check out these entries, answers already filled in.
COMPOUND | ASSAY SYSTEM | ASSAY METRIC | ASSAY RESULT
COc1ccc(-c2oc3c(CC=C(C)C)c(O[C@@H]4O[C@H](CO)[C@@H](O)[C@H](O)[C@H]4O)cc(O)c3c(=O)c2O[C@@H]2O[C@@H](C)[C@H](O)[C@@H](O)[C@H]2O)cc1 [icariin] | lactase phlorizin hydrolase | hydrolysis inhibition rate, colon | 46%
COc1ccc(-c2oc3c(CC=C(C)C)c(OC4OC(CO)C(O)C(O)C4O)cc(O)c3c(=O)c2OC2OC(C)C(O)C(O)C2OC2OCC(O)C(O)C2O)cc1 (stereo not shown) [epimedin B] | lactase phlorizin hydrolase | hydrolysis inhibition rate, colon | 22%
COc1ccc(-c2oc3c(CC=C(C)C)c(OC4OC(CO)C(O)C(O)C4O)cc(O)c3c(=O)c2OC2OC(C)C(O)C(O)C2OC2OC(CO)C(O)C(O)C2O)cc1 (stereo not shown) [epimedin A] | lactase phlorizin hydrolase | hydrolysis inhibition rate, colon | 14%

Proceed to the following item.
Exam item: Which hydrolysis inhibition rate, colon reading was recorded for the compound COc1ccc(-c2oc3c(CC=C(C)C)c(OC4OC(CO)C(O)C(O)C4O)cc(O)c3c(=O)c2OC2OC(C)C(O)C(O)C2OC2OC(C)C(O)C(O)C2O)cc1 (stereo not shown) [epimedin C] ?
Marked response: 35%
